Ref: patent US20170166561A1

- procedure-summary: Human plasma stability (Protocols 1 and 2)
- Assay type: in vitro ADME
- experimental-context: human, plasma, pH 7.4
Each entry below lists one item and its recorded half-life at 5 μM value.
parameter: half-life at 5 μM (h)

> print(dat)
                                    compound          parameter  readout.value
 1  COCCOc1ccc2[nH]cc(C(=O)OCC34CCN(CC3)CC4)c2c1C  half-life at 5 μM           8.32
 2  Cc1cc2c(C(=O)OCC34CCN(CC3)CC4)c[nH]c2cc1Cl  half-life at 5 μM           4.77
 3  COc1cc2c(C(=O)OCC34CCN(CC3)CC4)c[nH]c2cc1O  half-life at 5 μM          0.954
 4  O=C(OCC12CCN(CC1)CC2)c1c[nH]c2cccc(C3CC3)c12  half-life at 5 μM             14
 5  Cc1ccc2[nH]cc(C(=O)OCC34CCN(CC3)CC4)c2c1Cl  half-life at 5 μM           7.05
 6  O=C(OCC12CCN(CC1)CC2)c1c[nH]c2cc(O)cc(Cl)c12  half-life at 5 μM           14.3
 7  COCCCOc1ccc2[nH]cc(C(=O)OCC34CCN(CC3)CC4)c2c1C  half-life at 5 μM           3.13
 8  Cc1cc2c(C(=O)OCC34CCN(CC3)CC4)c[nH]c2cc1O  half-life at 5 μM           1.54
 9  COc1cc(C#N)cc2[nH]cc(C(=O)OCC34CCN(CC3)CC4)c12  half-life at 5 μM           3.87
10  O=C(OCC12CCN(CC1)CC2)c1c[nH]c2ccc(F)c(Br)c12  half-life at 5 μM           96.9
11  COc1cc(Br)c2c(C(=O)OCC34CCN(CC3)CC4)c[nH]c2c1  half-life at 5 μM            982
